The reported measurements were obtained from patent US12011460B2.

- System: CD34 + CD45RA- cells
- Method: Expansion of CD34+CD45RA- cells compared to DMSO (EC50)
- Format: cell-based
- Measurement Context: concentration of compound necessary to expand 50% more of CD34+CD45RA- cells as compared to cells treated with DMSO

{"Compound": "COC(=O)c1ccc2c(c1)[nH]c1nc(Cc3ccc4ccccc4c3)nc(NCCCN3CCCCC3)c12", "EC50 [nM]": 150}
{"Compound": "COC(=O)c1ccc2c(c1)[nH]c1nc(Cc3ccccc3)nc(NNc3ccc(S(C)(=O)=O)cc3)c12", "EC50 [nM]": 23}
{"Compound": "COC(=O)c1ccc2c(c1)[nH]c1nc(C(OC)c3ccccc3)nc(NCCCN3CCCCC3)c12 (centres unmarked)", "EC50 [nM]": 68}
{"Compound": "CN1CCN(c2ccc(CNc3nc(Cc4ccccc4)nc4[nH]c5cc(-c6nnn(C)n6)ccc5c34)cc2)CC1", "EC50 [nM]": 100}
{"Compound": "COC(=O)c1ccc2c(c1)[nH]c1nc(Cc3ccccc3)nc(NCCN(C)C(C)=O)c12", "EC50 [nM]": 83}
